Biological target: human SIRPα v2 expressed on cells (CHOK1 stable line KYinno KC-1720) (human) (UniProt P78324)
Experiment: FACS, CHOK1-hSIRPα v2 cells
binders and their reported TOP MFI
observation_type: TOP MFI (MFI)

INSERT INTO measurements (binder, reading_unit, measurement) VALUES
  ('hu1H9G4 (antibody, V domains shown) VH: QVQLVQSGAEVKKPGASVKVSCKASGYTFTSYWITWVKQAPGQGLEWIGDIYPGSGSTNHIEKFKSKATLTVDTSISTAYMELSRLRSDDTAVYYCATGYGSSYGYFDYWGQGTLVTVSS VL: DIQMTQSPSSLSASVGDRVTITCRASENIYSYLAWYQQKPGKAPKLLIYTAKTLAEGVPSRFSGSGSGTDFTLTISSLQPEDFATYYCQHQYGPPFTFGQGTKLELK', 'MFI', 18700),
  ('042c (antibody, V domains shown) VH: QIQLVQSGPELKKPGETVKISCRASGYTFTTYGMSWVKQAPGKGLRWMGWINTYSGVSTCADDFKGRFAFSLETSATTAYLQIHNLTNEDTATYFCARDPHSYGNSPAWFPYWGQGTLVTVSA VL: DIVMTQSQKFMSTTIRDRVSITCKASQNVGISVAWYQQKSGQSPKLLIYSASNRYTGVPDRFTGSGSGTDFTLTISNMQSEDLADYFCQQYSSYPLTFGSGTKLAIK', 'MFI', 54800),
  ('073c (antibody, V domains shown) VH: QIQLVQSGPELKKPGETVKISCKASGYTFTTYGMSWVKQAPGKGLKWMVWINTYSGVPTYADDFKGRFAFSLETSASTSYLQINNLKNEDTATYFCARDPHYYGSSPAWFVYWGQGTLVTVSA VL: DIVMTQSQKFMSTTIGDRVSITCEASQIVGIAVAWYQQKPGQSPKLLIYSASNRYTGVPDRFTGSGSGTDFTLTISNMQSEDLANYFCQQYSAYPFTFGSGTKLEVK', 'MFI', 47300);
